Target: T1, human angiotensin 2 type 1 receptor (human, UniProt P30556 1-359)
T1 sequence (looked up): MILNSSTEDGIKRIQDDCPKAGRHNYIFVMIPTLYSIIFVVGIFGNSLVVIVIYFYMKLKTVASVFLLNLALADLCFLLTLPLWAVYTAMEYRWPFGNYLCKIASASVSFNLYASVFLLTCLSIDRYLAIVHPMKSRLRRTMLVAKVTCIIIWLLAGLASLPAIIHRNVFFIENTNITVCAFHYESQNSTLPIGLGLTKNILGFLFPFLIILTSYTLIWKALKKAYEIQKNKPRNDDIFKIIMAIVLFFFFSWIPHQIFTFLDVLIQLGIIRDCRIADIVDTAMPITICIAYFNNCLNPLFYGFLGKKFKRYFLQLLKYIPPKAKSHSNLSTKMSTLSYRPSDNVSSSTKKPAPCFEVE
Assay: cell-based or functional assay
Non-standard residues stand in square brackets, D forms with d. No end group written: not given here. Sar = CNCC(=O)O
outcome.measure: b-arrestin2 Max (%)

DRVYYHP (N-Me-Asp (N-methyl-L-aspartic acid) at 1; C-terminal amide (NH2)) [SEQ ID NO: 61] = 37.5

A: GRVYVHPA (Me2G (N,N-dimethylglycine) at 1) [SEQ ID NO: 31]
B: [Sar]RVY[dA]HP-NH2 (N-terminus assumed; SMILES CNCC(=O)N[C@@H](CCCNC(=N)N)C(=O)N[C@H](C(=O)N[C@@H](Cc1ccc(O)cc1)C(=O)N[C@H](C)C(=O)N[C@@H](Cc1c[nH]cn1)C(=O)N1CCC[C@H]1C(N)=O)C(C)C) [SEQ ID NO: 53]
Request: Lower value for measured b-arrestin2 Max (%)? Options: A , B // respond with label for picked entry
Result: B

P: DRVYYHP (C-terminal amide (NH2)) [SEQ ID NO: 57]
Q: XRVYIHP (Sar (sarcosine) at 1; D-Pro at 7; C-terminal amide (NH2)) [SEQ ID NO: 51]
R: [Sar]RVYVH-NH2 (N-terminus assumed; SMILES CNCC(=O)N[C@@H](CCCNC(=N)N)C(=O)N[C@H](C(=O)N[C@@H](Cc1ccc(O)cc1)C(=O)N[C@H](C(=O)N[C@@H](Cc1c[nH]cn1)C(N)=O)C(C)C)C(C)C) [SEQ ID NO: 55]
Request: Parameters: sort_field (b-arrestin2 Max (%)), sort_dir (desc). Ranked list of labels, please, in the requested order.
Result: R, P, Q
(R: 92.7%, P: 42.1%, Q: 20.2%)

a: ERVYFHP (N-Me-Glu (N-methyl-L-glutamic acid) at 1; C-terminal amide (NH2)) [SEQ ID NO: 66]
b: XRVYYHP (Sar (sarcosine) at 1) [SEQ ID NO: 52]
Request: Field: lower b-arrestin2 Max (%) | Options: a / b Response format: the label of the selected entry.
Result: a
